Test system: CCRIS mutagenicity, Ames/micronucleus/aberration tests
Test: CCRIS mutagenicity studies
Conditions: Test System: AMES SALMONELLA TYPHIMURIUM; Strain/Indicator: TA97; Metabolic Activation: NONE; Method: PREINCUBATION
Active and inactive are the calls of the source. The rule behind the calls is not given here.
Can you answer with just one of these options? active, inactive

Recorded results for 3 compounds are shown here.
compound=O[C@H]1[C@H]2O[C@H]2C=C[C@@H]1O class=inactive
compound=O=P(O)(O)OC(CO)CO class=inactive
compound=COC=O class=inactive

Tell me the recorded outcome of this test for CC(O)CCl (stereo not drawn) .
inactive

Tell me the recorded outcome of this test for Nc1ccccc1C(=O)OCCc1ccccc1 .
inactive

Tell me the recorded outcome of this test for CCCCCCCCCCCC(=O)O .
inactive

Tell me the recorded outcome of this test for Cc1cccc(N)c1C .
inactive

Tell me the recorded outcome of this test for CCCC(=O)OC1CCCCC1 .
inactive

Tell me the recorded outcome of this test for CC(Cl)(Cl)[N+](=O)[O-] .
active

Tell me the recorded outcome of this test for CCCCCCC(O)C/C=C\CCCCCCCC(=O)OCC(COC(=O)CCCCCCC/C=C\CC(O)CCCCCC)OC(=O)CCCCCCC/C=C\CC(O)CCCCCC (stereo not drawn) .
inactive

Tell me the recorded outcome of this test for C=Cc1c(C)c2[n-]c1=CC1=NC(=CC3=C(C)C(=C([O-])[O-])C(=N3)C(CC(=O)[O-])=C3N=C(C=2)C(C)C3CCC(=O)[O-])C(CC)=C1C.[Cu+2].[Na+].[Na+].[Na+] (stereo not drawn) .
inactive

Tell me the recorded outcome of this test for CCn1cc(C(=O)O)c(=O)c2ccc(C)nc21 .
inactive

Tell me the recorded outcome of this test for C=CCNC(N)=S .
inactive

----------
Tested on: CCRIS mutagenicity, Ames/micronucleus/aberration tests
Test: CCRIS mutagenicity studies
Details: Test System: AMES SALMONELLA TYPHIMURIUM; Strain/Indicator: TA100; Metabolic Activation: RAT, LIVER, S-9, AROCLOR 1254; Method: STANDARD PLATE
The source made the active and inactive calls. How the calls were made is not given here.
Can you answer with just one of these options? true (1) for active, false (0) for inactive

Recorded results for 3 molecules are shown here.
molecule=CC(=O)CC(C)(C)O class="false (0)"
molecule=O=c1oc2cc(O)ccc2c2oc3cc(O)ccc3c12 class="false (0)"
molecule=Cc1cc(=O)n(-c2ccccc2)n1C class="false (0)"

Attention now turns to another entry.
Tell me the recorded outcome of this test for O=C(O)/C=C\C(=O)O .
false (0)

----------
System: CCRIS mutagenicity, Ames/micronucleus/aberration tests
Assay: CCRIS mutagenicity studies
Details: Test System: AMES SALMONELLA TYPHIMURIUM; Strain/Indicator: TA100; Metabolic Activation: RAT, LIVER, S-9, AROCLOR 1254 (10%); Method: PREINCUBATION
Calls of active or inactive are those of the source. No rule for the calls is given here.
Can you answer with just one of these options? active, inactive

Recorded results for 3 compounds are shown here.
compound="CCCCOCC1CO1 (configuration not stated)" target_or_system="CCRIS mutagenicity, Ames/micronucleus/aberration tests" class=active
compound=CCCCCCCCOC(=O)c1ccccc1C(=O)OCCCCCCCC target_or_system="CCRIS mutagenicity, Ames/micronucleus/aberration tests" class=inactive
compound=CC(C)[N+](C)(CCOC(=O)C1c2ccccc2Oc2ccccc21)C(C)C target_or_system="CCRIS mutagenicity, Ames/micronucleus/aberration tests" class=inactive

Tell me the recorded outcome of this test for CC(C#N)CCC#N (configuration not stated) .
inactive

Tell me the recorded outcome of this test for C1=C\CC/C=C\CC/1.C1=C\CC/C=C\CC/1.[Ni] .
active

Tell me the recorded outcome of this test for Clc1nc2ccccc2nc1Cl .
inactive

Tell me the recorded outcome of this test for O.[Al+3].[Al+3].[Na+].[Na+].[O-2].[O-2].[O-2].[O-2].[O-2].[O-2].[Si+4] .
inactive

Tell me the recorded outcome of this test for O=Cc1ccccc1 .
inactive
